Values from paper doi:10.1101/841569v1

- Experimental System: UniProt:P9WK11
- Sequence (P9WK11 whole entry): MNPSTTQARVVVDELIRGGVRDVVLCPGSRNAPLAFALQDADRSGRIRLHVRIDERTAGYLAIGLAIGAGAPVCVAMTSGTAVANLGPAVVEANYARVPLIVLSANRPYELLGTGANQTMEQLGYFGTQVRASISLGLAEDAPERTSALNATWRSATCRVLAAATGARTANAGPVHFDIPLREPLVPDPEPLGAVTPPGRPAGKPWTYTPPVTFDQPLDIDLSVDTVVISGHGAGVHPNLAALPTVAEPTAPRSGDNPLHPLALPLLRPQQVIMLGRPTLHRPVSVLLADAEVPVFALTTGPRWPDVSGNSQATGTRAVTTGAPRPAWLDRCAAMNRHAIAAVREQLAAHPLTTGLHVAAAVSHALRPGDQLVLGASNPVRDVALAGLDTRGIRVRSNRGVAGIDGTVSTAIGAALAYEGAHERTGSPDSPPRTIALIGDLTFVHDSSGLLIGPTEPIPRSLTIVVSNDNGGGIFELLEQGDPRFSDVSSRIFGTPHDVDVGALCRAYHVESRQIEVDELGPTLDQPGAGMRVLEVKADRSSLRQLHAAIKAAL
Measured Attribute: IC50 (nM)

[[record]]
smiles_representation = "O=C(O)c1cc(O)c2ccccc2c1O"
uom = "nM"
recorded_value = 53

